Tested on: TMV
procedure.summary: Protective effect of compounds against TMV in vivo
Set-up: species or system tobacco mosaic virus
conditions: Tobacco mosaic virus, read-out: relative inhibition rate (%) protective effect
Catalogue of inhibition at 100 µg/mL values

{"columns": ["molecule", "assay.system", "inhibition at 100 µg/mL"],
 "data": [
  ["NNC(=O)Cn1ccc(=O)c2ccccc21", "TMV", "11.4%"],
  ["COc1cccc(C=NNC(=O)Cn2ccc(=O)c3ccccc32)c1", "TMV", "15.8%"],
  ["O=C(Cn1ccc(=O)c2ccccc21)NN=Cc1ccc(-c2ccccc2)cc1", "TMV", "20.9%"],
  ["O=C(Cn1ccc(=O)c2ccccc21)NN=Cc1ccc(C(F)(F)F)cc1", "TMV", "19%"],
  ["NC(=O)c1ncn([C@@H]2O[C@H](CO)[C@@H](O)[C@H]2O)n1 [Ribavirin, reference compound]", "TMV", "13.4%"],
  ["O=C(Cn1ccc(=O)c2ccccc21)NN=Cc1cc2ccccc2[nH]1", "TMV", "0%"]
]}

---

Tested on: Bipolaris maydis
Format: cell-based
conditions: read-out: Inhibition rate, Bm

{"columns": ["molecule", "inhibition at 50 µg/mL / %"],
 "data": [
  ["O=C(Cn1ccc(=O)c2ccccc21)NN=Cc1ccccc1", 15.6],
  ["O=C(Cn1ccc(=O)c2ccccc21)NN=Cc1cc2ccccc2[nH]1", 8.9],
  ["O=C(Cn1ccc(=O)c2ccccc21)NN=Cc1ccccc1[N+](=O)[O-]", 13.3],
  ["N#Cc1c(Cl)c(Cl)c(Cl)c(C#N)c1Cl [chlorothalonil, reference compound]", 86],
  ["O=C(Cn1ccc(=O)c2ccccc21)NN=Cc1ccc(-c2ccccc2)cc1", 11.1],
  ["Cc1ccc(C=NNC(=O)Cn2ccc(=O)c3ccccc32)cc1", 11.1],
  ["O=C(Cn1ccc(=O)c2ccccc21)NN=Cc1ccco1", 20],
  ["O=C(Cn1ccc(=O)c2ccccc21)NN=Cc1cscn1", 8.9],
  ["O=C(Cn1ccc(=O)c2ccccc21)NN=Cc1ccc([N+](=O)[O-])cc1", 40]
]}

---

assay.system: UniProtKB P69687
Sequence (P69687 2-159 limits assumed): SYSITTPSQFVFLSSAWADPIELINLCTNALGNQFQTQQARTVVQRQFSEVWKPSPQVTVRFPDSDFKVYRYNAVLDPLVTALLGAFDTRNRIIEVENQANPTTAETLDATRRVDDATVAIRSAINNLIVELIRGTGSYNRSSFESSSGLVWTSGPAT
Catalogue of Kd values

{"columns": ["molecule", "Kd"],
 "data": [
  ["COc1cccc(C=NNC(=O)Cn2ccc(=O)c3ccccc32)c1 [Compound 4]", "142 nM"],
  ["NC(=O)c1ncn([C@@H]2O[C@H](CO)[C@@H](O)[C@H]2O)n1 [Ribavirin, reference compound]", "512 nM"]
]}

---

Test system: TMV
procedure.summary: Inactivation effect of compounds against TMV in vivo
Design: species or system tobacco mosaic virus
conditions: Tobacco mosaic virus, read-out: relative inhibition rate (%) inactive effect
Catalogue of inhibition at 500 µg/mL values

{"columns": ["compound", "inhibition at 500 µg/mL"],
 "data": [
  ["O=C(Cn1ccc(=O)c2ccccc21)NN=Cc1cccs1 [Compound 21]", "12.3%"],
  ["O=C(Cn1ccc(=O)c2ccccc21)NN=Cc1ccc(-c2ccccc2)cc1 [Compound 11]", "49.6%"],
  ["O=C(Cn1ccc(=O)c2ccccc21)NN=Cc1ccc(Br)cc1 [Compound 14]", "31.7%"],
  ["O=C(Cn1ccc(=O)c2ccccc21)NN=Cc1ccccc1[N+](=O)[O-] [Compound 16]", "14.6%"],
  ["O=C(Cn1ccc(=O)c2ccccc21)NN=Cc1coc2ccccc12 [Compound 24]", "33.5%"],
  ["O=C(Cn1ccc(=O)c2ccccc21)NN=Cc1ccc(-n2cccn2)cc1 [Compound 9]", "38.1%"],
  ["O=C(Cn1ccc(=O)c2ccccc21)NN=Cc1cscn1 [Compound 22]", "23.9%"],
  ["CC(C)(C)c1ccc(C=NNC(=O)Cn2ccc(=O)c3ccccc32)cc1 [Compound 3]", "24.1%"],
  ["CSc1ccc(C=NNC(=O)Cn2ccc(=O)c3ccccc32)cc1 [Compound 10]", "15.4%"],
  ["CCOC(=O)Cn1ccc(=O)c2ccccc21 [Compound B]", "32.1%"],
  ["NNC(=O)Cn1ccc(=O)c2ccccc21 [C]", "45.9%"],
  ["NC(=O)c1ncn([C@@H]2O[C@H](CO)[C@@H](O)[C@H]2O)n1 [Ribavirin, reference compound]", "39.2%"],
  ["O=C(Cn1ccc(=O)c2ccccc21)NN=Cc1ccco1 [Compound 20]", "29.7%"],
  ["COc1ccc(C=NNC(=O)Cn2ccc(=O)c3ccccc32)cc1OC [Compound 5]", "11.3%"],
  ["O=C(Cn1ccc(=O)c2ccccc21)NN=Cc1ccc(F)cc1 [Compound 12]", "27.4%"]
]}
